run_description: cell cytotoxicity in a cell viability assay (CC50)
Format: cell-based
assay_conditions: concentration required for 50% cell survival
Provide the recorded CC50 for the entries that follow.

Problem: Give the measured CC50 of CSc1ncccc1C(=O)Nc1nc(-c2cccc(-c3ccccc3)c2)cs1 [Compound 1] .
Result: > 40 µM

Problem: Give the measured CC50 of CSc1ncccc1C(=O)Nc1nc(-c2cccc(-c3cccc(C#N)c3)c2)cs1 [Compound 5] .
Result: > 40 µM

Problem: Give the measured CC50 of CSc1ncccc1C(=O)Nc1nc(-c2cccc(-n3ccnc3)c2)cs1 [Compound 29] .
Result: > 40 µM
